Assign CC50 at 120 h to each entry below.
Assay: Cytotoxicity against human MT4 cells assessed as reduction in cell viability incubated for 5 days by MTT method
Assay type: toxicity, cell-based
Settings: time 5 day
Answers are plain numbers, in µM.

The examples below pair each entry with its known result.
{"smiles.str": "CCNC(=O)Cn1cc(CN2CCC(Nc3nc(Oc4c(C)cc(/C=C/C#N)cc4C)c4ccccc4n3)CC2)nn1", "metric": "CC50 at 120 h", "numeric.value": 23.7}
{"smiles.str": "Cc1cc(/C=C/C#N)cc(C)c1Oc1ccnc(NC2CCN(Cc3cn(CC(=O)NC4CC4)nn3)CC2)n1", "metric": "CC50 at 120 h", "numeric.value": 20.9}
{"smiles.str": "CNC(=O)Cn1cc(CN2CCC(Nc3nc(Oc4c(C)cc(/C=C/C#N)cc4C)c4sccc4n3)CC2)nn1", "metric": "CC50 at 120 h", "numeric.value": 18.4}

Entry Cc1cc(/C=C/C#N)cc(C)c1Oc1nc(NC2CCN(Cc3cn(CC(N)=O)nn3)CC2)nc2ccccc12 — recorded CC50 at 120 h = 18.1
